melting point values by entry

Example cases with answers are listed next.
> print(dat)
                                   compound   result.value
1  C=Cc1cccc2c1-c1ccc3c(c1C(C1(C)CC=CCC1)O2)C(C)=CC(C)(C)N3 (centres unmarked)  198 to 201 °C
2  COc1cccc2c1-c1ccc3c(c1C(CNC(=O)OC(C)(C)C)O2)C(C)=CC(C)(C)N3 (centres unmarked)  130 to 135 °C
3  C=Cc1cccc2oc(=O)c3c4c(ccc3c12)NC(C)(C)C=C4C  218 to 224 °C

Query :: Given COC(=O)c1cccc2c1-c1ccc3c(c1C(c1ccccc1)O2)C(C)=CC(C)(C)N3 (centres unmarked) , respond with its melting point.
Result :: 150 to 152 °C

Query :: Provide melting point value for the following compound: COc1cccc2c1-c1ccc3c(c1C(CC=C1CCCCC1)O2)C(C)=CC(C)(C)N3 (centres unmarked)
Result :: 130 to 135 °C

----------
Target: human glucocorticoid receptor-α [GRX] isoform (Homo sapiens, UniProt P04150)
Construct: host or cells: insect SF21 cells (baculovirus)
Sequence (P04150 whole entry, canonical isoform): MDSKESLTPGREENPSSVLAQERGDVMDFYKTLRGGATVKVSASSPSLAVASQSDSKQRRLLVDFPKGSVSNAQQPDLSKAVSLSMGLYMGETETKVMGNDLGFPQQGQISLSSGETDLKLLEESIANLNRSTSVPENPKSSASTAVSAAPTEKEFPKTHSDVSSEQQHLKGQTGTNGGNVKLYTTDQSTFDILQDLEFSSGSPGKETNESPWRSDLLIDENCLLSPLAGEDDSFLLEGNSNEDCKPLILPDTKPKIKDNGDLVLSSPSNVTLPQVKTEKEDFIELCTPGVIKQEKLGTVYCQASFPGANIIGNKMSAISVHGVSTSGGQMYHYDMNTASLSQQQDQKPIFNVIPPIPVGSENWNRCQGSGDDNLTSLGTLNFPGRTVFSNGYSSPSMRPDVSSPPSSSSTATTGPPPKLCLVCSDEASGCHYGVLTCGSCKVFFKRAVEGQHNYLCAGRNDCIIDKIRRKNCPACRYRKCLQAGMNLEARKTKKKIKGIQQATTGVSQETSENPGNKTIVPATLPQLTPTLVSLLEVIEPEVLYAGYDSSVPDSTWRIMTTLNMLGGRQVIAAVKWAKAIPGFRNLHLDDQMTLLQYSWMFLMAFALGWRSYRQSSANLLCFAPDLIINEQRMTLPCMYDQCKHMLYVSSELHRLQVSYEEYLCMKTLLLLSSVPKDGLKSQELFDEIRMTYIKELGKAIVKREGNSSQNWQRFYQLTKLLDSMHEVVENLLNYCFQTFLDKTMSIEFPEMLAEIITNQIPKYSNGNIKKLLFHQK
Assay: Radioligand binding with human glucocorticoid receptor cytosol ([3H]-dexamethasone competition)
Conditions: Ki (nM) GR
Readout type: Ki (nM)
Report the figure in nM without appending any unit label.

> print(dat)
                                   compound  readout.type  value.units  result.value
1  COc1cccc2c1-c1ccc3c(c1C(C1C=CCCC1)O2)C(C)=CC(C)(C)N3 (mixture of isomers) [Example 137]            Ki           nM           5.5
2  COc1cccc2c1-c1ccc3c(c1C(CC=C1CCCC1)O2)C(C)=CC(C)(C)N3 (stereo not drawn) [Example 188]            Ki           nM           4.9
3  COc1c(O)ccc2c1-c1ccc3c(c1C(c1ccccc1OC(=O)N(C)C)O2)C(C)=CC(C)(C)N3 (stereo not drawn) [Example 402]            Ki           nM           3.3
4  COc1cccc2c1-c1ccc3c(c1C(c1ccc(OC(=O)N(C)C)cc1)O2)C(C)=CC(C)(C)N3 (stereo not drawn) [Example 97]            Ki           nM           320
5  COc1cccc2c1-c1ccc3c(c1C(c1cccc(OC(=O)N(C)C)c1)O2)C(C)=CC(C)(C)N3 (stereo not drawn) [Example 15]            Ki           nM           2.5

Proceeding to the next compound to report its Ki.
Query :: Write down Ki measured for item COc1cccc2c1-c1ccc3c(c1C(c1cc(C)cc(C)c1)O2)C(C)=CC(C)(C)N3 (stereo not drawn) [Example 27]
Result :: 5.2

----------
Target: human progesterone receptor-A [PRA] isoform (Homo sapiens)
Construct: host or cells: insect SF21 cells (baculovirus)
Sequence (P06401 165-933): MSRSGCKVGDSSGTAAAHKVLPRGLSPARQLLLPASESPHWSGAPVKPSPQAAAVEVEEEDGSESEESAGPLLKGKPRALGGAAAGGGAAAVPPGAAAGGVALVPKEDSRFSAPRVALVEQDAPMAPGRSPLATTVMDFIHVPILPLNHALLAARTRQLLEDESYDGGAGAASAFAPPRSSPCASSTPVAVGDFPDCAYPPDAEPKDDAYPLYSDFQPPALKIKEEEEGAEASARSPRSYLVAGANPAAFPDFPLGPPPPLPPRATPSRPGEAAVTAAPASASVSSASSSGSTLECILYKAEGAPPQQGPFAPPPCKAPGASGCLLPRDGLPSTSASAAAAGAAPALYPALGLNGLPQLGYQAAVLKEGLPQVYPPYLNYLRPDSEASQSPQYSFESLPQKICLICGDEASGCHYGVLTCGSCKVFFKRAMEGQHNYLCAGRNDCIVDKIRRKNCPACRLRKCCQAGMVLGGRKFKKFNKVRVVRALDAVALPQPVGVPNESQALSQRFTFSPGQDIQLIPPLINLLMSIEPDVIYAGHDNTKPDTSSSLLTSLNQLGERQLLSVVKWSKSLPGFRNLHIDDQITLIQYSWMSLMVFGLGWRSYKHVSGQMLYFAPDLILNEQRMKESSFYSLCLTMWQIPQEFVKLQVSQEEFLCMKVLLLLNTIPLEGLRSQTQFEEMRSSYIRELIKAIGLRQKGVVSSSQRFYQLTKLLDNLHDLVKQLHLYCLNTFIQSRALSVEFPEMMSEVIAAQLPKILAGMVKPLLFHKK
Assay: Radioligand binding with human progesterone receptor cytosol ([3H]-progesterone competition)
Conditions: PRA cytosol expressed in insect SF21 cells, [3H]Prog ~0.8 nM, 4° C. overnight; Ki by Cheng-Prusoff, KL ~4.5 nM; read-out: Ki (nM) PR
Threshold 200 nM. Ki below it: yes. Ki at it or above: no.

Recorded results for 4 molecules are shown here.
> print(dat)
                                   molecule  assigned.category
1  CC1=CC(C)(C)Nc2ccc3c(c21)C(C(C)C)Oc1ccc(O)c(Cl)c1-3 (centres unmarked) [Example 405]                yes
2  C=CCC1Oc2ccc(O)c(OC)c2-c2ccc3c(c21)C(C)=CC(C)(C)N3 (centres unmarked) [Example 235]                yes
3  C=CCC1Oc2ccc(OC)c(OC)c2-c2ccc3c(c21)C(C)=CC(C)(C)N3 (centres unmarked) [Example 290]                 no
4  C#CCOc1cccc(C2Oc3cccc(OC)c3-c3ccc4c(c32)C(C)=CC(C)(C)N4)c1 (centres unmarked) [Example 92]                 no

Query :: Hello, is Ki of the following molecule strictly smaller than 200 nM? CC1=CC(C)(C)Nc2ccc3c(c21)[C@H]([C@H]1C=CCC1)Oc1ccc(O)c(Cl)c1-3 [Example 222]
Result :: yes

Query :: Regarding C=CCCC1Oc2cccc(OC)c2-c2ccc3c(c21)C(C)=CC(C)(C)N3 (centres unmarked) [Example 68] , kindly confirm whether its Ki is beneath 200 nM.
Result :: no

Query :: Ki strictly < 200 nM for this molecule? COc1c(O)ccc2c1-c1ccc3c(c1C(c1c(F)c(F)c(F)c(F)c1F)O2)C(C)=CC(C)(C)N3 (racemic) [Example 269]
Result :: no

Query :: Lab note: confirm whether the reported Ki for this molecule is below 200 nM, equality not counting. molecule: C=CCC1Oc2cccc(OC)c2-c2ccc3c(c21)C(C)=CC1(CCOCC1)N3 (centres unmarked) [Example 359]
Result :: no
